- testDescription: Kinetic solubility of the compound in FaSSIF at pH 6.5 measured after 1 hr
- Type: physicochemical
- condition: read-out: Kinetic_solubility
experimentalEndpoint: solubility kinetic at 1 h
Param answer (str): number followed by unit.

q: Name the recorded solubility kinetic at 1 h for Cc1nnc2sc(C(=O)NC3CN(c4cccc(F)c4F)C3)c(N)c2c1C .
a: 15 µg/mL

====

- studySystem: Muscarinic acetylcholine receptor M2 (Homo sapiens)
- Sequence (P08172 whole entry): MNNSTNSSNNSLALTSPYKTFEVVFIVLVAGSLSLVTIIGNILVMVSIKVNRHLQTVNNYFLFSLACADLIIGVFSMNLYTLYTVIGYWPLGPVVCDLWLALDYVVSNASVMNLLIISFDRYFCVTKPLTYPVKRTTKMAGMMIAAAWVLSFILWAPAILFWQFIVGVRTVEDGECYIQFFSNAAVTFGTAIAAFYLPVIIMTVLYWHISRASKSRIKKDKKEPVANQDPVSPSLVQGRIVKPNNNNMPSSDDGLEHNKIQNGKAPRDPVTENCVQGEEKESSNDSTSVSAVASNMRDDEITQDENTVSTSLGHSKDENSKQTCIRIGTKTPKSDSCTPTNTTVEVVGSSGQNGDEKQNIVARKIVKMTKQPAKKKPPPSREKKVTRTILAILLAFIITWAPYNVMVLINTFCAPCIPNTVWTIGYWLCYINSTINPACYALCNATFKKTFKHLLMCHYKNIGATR
- testDescription: Activity at human M2 receptor assessed as increase in acetylcholine-induced calcium mobilization
experimentalEndpoint: EC50 (nM)
Numeric answer only, unit nM assumed.

Example entries begin here.
structureSmiles	experimentalEndpoint	assayResult
Cc1nnc2sc(C(=O)NC3CN(c4ccc(C(F)(F)F)nc4)C3)c(N)c2c1C	EC50	960
Cc1nnc2sc(C(=O)NC3CN(c4ccccc4)C3)c(N)c2c1C	EC50	1780
Cc1nnc2sc(C(=O)NC3CN(C(=O)Oc4ccccc4)C3)c(N)c2c1C	EC50	2650

Let's switch to this molecule now.
q: Name the recorded EC50 for Cc1nnc2sc(C(=O)NC3CN(c4nc5cccnc5s4)C3)c(N)c2c1C .
a: 220

====

- System: Rattus norvegicus
- testDescription: Reversal of amphetamine-induced hyperlocomotion in Sprague-Dawley rat assessed as plasma concentration required for the effect at 3 mg/kg, po pretreated 30 mins post habituation in the chamber followed by amphetamine injection after 30 mins measured at 1.5 hrs post dose
- Assay type: functional, organism-based
- condition: Rattus norvegicus, Sprague-Dawley
experimentalEndpoint: pEC50
Recall that pEC50 is obtained by taking minus log10 of the concentration measured in molar.

q: Name the recorded pEC50 for Cc1nnc2sc(C(=O)NC3CN(c4cccc(F)c4F)C3)c(N)c2c1C .
a: 7.13

====

- System: Brain
- testDescription: Drug level in Sprague-Dawley rat brain at 3 mg/kg, po
- Format: ADME, organism-based
- condition: in vivo, read-out: Drug uptake
experimentalEndpoint: concentration (nM)
Numeric answer only, unit nM assumed.

q: Name the recorded concentration for Cc1nnc2sc(C(=O)NC3CN(c4cccc(F)c4F)C3)c(N)c2c1C .
a: 510

====

- Tested on: Brain
- testDescription: Drug level in Sprague-Dawley rat brain at 0.03 mg/kg, po
- Format: ADME, organism-based
- condition: in vivo, read-out: Drug uptake
experimentalEndpoint: concentration (nM)
Numeric answer only, unit nM assumed.

q: Name the recorded concentration for Cc1nnc2sc(C(=O)NC3CN(c4cccc(F)c4F)C3)c(N)c2c1C .
a: 4.6

====

- Tested on: Brain
- testDescription: Drug level in Sprague-Dawley rat brain at 0.1 mg/kg, po
- Type: ADME, organism-based
- condition: in vivo, read-out: Drug uptake
experimentalEndpoint: concentration
Param answer (str): number followed by unit.

q: Name the recorded concentration for Cc1nnc2sc(C(=O)NC3CN(c4cccc(F)c4F)C3)c(N)c2c1C .
a: 9.9 nM

====

- studySystem: UniProtKB P05177
- Sequence (P05177 whole entry): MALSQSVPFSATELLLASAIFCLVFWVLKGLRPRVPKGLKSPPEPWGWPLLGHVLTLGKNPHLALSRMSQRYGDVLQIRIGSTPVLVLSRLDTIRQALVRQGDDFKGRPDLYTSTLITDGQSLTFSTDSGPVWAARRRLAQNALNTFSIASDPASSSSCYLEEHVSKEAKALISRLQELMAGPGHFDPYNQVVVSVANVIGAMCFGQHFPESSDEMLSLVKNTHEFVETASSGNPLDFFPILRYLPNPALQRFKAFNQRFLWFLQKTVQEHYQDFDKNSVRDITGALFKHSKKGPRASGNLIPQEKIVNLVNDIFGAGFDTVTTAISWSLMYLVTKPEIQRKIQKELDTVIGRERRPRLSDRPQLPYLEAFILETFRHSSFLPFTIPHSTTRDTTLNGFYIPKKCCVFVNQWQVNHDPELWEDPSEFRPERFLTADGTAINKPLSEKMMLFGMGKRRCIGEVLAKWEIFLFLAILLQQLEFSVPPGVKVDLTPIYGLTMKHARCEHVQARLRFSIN
experimentalEndpoint: IC50 (µM)
Numeric answer only, unit µM assumed.

q: Find IC50 (UniProtKB P05177) for the entry Cc1nnc2sc(C(=O)NC3CN(c4cccc(F)c4F)C3)c(N)c2c1C
a: 25

====

- testDescription: Oral bioavailability in Mongrel dog at 2 mg/kg administered as suspension
- Assay type: ADME, organism-based, Canis lupus familiaris
- condition: in vivo
experimentalEndpoint: bioavailability (%)
Numeric answer only, unit % assumed.

q: Name the recorded bioavailability for Cc1nnc2sc(C(=O)NC3CN(c4cccc(F)c4F)C3)c(N)c2c1C .
a: 11

====

- studySystem: Cytochrome P450 2D6 (Homo sapiens, UniProt P10635)
- Sequence (P10635 whole entry): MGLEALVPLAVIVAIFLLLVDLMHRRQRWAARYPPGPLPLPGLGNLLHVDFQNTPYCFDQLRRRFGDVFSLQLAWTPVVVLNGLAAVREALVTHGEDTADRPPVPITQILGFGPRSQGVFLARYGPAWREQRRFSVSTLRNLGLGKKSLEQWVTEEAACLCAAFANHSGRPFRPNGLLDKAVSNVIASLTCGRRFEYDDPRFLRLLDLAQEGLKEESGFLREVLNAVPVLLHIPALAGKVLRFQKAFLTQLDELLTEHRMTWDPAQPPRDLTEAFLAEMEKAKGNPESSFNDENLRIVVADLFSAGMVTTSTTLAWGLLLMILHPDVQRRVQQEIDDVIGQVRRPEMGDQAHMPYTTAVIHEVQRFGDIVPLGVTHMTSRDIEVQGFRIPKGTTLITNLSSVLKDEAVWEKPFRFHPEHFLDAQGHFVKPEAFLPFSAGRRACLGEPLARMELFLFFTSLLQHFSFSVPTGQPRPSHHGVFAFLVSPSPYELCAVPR
experimentalEndpoint: IC50 (µM)
Numeric answer only, unit µM assumed.

q: Find IC50 (Cytochrome P450 2D6 (Homo sapiens, UniProt P10635)) for the entry Cc1nnc2sc(C(=O)NC3CN(c4cccc(F)c4F)C3)c(N)c2c1C
a: 14

====

- testDescription: Clearance in Sprague-Dawley rat
- Type: ADME
- condition: in vivo
experimentalEndpoint: clearance (mL/min/kg)
Numeric answer only, unit mL/min/kg assumed.

Example entries begin here.
structureSmiles	experimentalEndpoint	assayResult
Cc1nnc2sc(C(=O)NC3CN(c4ccc(C(F)(F)F)nc4)C3)c(N)c2c1C	clearance	8.8
Cc1nnc2sc(C(=O)NC3CN(c4ccc(F)c(F)c4)C3)c(N)c2c1C	clearance	4.4
Cc1nnc2sc(C(=O)NC3CN(C(=O)c4ccncc4)C3)c(N)c2c1C	clearance	3.1
Cc1nnc2sc(C(=O)NC3CN(c4ccccc4)C3)c(N)c2c1C	clearance	45

q: Name the recorded clearance for Cc1nnc2sc(C(=O)NC3CN(c4cccc(F)c4F)C3)c(N)c2c1C .
a: 16

====

- studySystem: Cytochrome P450 2C19 (Homo sapiens, UniProt P33261)
- Sequence (P33261 whole entry): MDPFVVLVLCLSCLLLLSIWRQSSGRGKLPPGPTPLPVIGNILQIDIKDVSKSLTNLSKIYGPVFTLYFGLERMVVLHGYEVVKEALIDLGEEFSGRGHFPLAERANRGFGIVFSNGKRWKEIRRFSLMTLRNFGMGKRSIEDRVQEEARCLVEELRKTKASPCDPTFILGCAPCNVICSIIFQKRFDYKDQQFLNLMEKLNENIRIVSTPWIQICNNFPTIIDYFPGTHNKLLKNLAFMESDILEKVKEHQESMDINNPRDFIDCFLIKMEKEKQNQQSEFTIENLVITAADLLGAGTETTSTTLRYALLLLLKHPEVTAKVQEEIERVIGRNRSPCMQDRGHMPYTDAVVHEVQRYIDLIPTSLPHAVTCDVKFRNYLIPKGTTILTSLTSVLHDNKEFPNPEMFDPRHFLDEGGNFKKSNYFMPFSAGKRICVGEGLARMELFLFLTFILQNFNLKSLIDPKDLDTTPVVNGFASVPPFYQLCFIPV
experimentalEndpoint: IC50 (µM)
Numeric answer only, unit µM assumed.

q: Find IC50 (Cytochrome P450 2C19 (Homo sapiens, UniProt P33261)) for the entry Cc1nnc2sc(C(=O)NC3CN(c4cccc(F)c4F)C3)c(N)c2c1C
a: 6.3

====

Let's look at some molecules and their measured %max.
- studySystem: Muscarinic acetylcholine receptor M4 (Homo sapiens)
- testDescription: Positive allosteric modulation of human M4 receptor expressed in CHO cells co-expressing Gqi5 assessed as increase in acetylcholine-induced calcium mobilization relative to acetylcholine
- Assay type: functional, cell-based
Numeric answer only, unit % assumed.

Example entries begin here.
structureSmiles	assayResult
Cc1nnc2sc(C(=O)NC3CN(c4nc5ccccc5o4)C3)c(N)c2c1C	89
Cc1nnc2sc(C(=O)NC3CN(C(=O)Nc4ccccc4)C3)c(N)c2c1C	89
Cc1nnc2sc(C(=O)NC3CN(c4cncc(F)c4)C3)c(N)c2c1C	90

q: Name the recorded %max for Cc1nnc2sc(C(=O)NC3CN(c4ccc(S(=O)(=O)C(F)F)cc4)C3)c(N)c2c1C .
a: 75

q: Name the recorded %max for Cc1nnc2sc(C(=O)NC3CN(C(=O)c4ccncc4)C3)c(N)c2c1C .
a: 85

====

- Tested on: Brain
- testDescription: Drug level in Sprague-Dawley rat brain at 1 mg/kg, po
- Format: ADME, organism-based
- condition: in vivo, read-out: Drug uptake
experimentalEndpoint: concentration (nM)
Numeric answer only, unit nM assumed.

q: Name the recorded concentration for Cc1nnc2sc(C(=O)NC3CN(c4cccc(F)c4F)C3)c(N)c2c1C .
a: 140

====

- studySystem: Cytochrome P450 3A4 (Homo sapiens, UniProt P08684)
- Sequence (P08684 whole entry): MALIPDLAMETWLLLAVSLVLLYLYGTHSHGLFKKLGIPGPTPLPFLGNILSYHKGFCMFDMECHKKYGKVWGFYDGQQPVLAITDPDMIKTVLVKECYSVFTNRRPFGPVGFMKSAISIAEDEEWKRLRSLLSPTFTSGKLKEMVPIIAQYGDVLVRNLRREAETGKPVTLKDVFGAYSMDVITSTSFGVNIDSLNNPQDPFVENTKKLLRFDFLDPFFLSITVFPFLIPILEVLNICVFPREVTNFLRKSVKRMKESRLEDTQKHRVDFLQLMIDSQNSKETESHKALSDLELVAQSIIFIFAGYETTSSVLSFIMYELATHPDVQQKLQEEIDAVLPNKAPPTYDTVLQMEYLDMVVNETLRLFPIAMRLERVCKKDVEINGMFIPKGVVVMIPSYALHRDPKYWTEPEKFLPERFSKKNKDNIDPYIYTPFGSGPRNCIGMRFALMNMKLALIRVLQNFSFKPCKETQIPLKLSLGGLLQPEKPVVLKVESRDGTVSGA
experimentalEndpoint: IC50 (µM)
Numeric answer only, unit µM assumed.

q: Name the recorded IC50 for Cc1nnc2sc(C(=O)NC3CN(c4cccc(F)c4F)C3)c(N)c2c1C .
a: 11

====

- testDescription: Volume of distribution at steady state in Sprague-Dawley rat
- Type: ADME
- condition: in vivo, read-out: Vdss
experimentalEndpoint: Vd (L/kg)
Numeric answer only, unit L/kg assumed.

q: Name the recorded Vd for Cc1nnc2sc(C(=O)NC3CN(c4ccc(C(F)(F)F)nc4)C3)c(N)c2c1C .
a: 0.89

====

- studySystem: Muscarinic acetylcholine receptor M4 (Homo sapiens, UniProt P08173)
- Sequence (P08173 whole entry): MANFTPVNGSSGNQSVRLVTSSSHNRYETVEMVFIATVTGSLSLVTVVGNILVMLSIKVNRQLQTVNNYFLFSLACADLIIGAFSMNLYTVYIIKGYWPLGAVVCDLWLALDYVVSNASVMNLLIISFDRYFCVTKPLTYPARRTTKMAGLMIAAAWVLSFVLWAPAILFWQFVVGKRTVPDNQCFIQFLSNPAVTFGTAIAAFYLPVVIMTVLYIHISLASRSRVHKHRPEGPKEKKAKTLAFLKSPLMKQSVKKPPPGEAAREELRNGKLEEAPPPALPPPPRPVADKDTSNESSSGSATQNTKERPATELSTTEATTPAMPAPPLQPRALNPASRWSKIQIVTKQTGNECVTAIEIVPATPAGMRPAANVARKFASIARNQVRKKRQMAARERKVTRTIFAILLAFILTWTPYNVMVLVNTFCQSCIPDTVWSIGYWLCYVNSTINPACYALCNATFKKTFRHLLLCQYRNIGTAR
- testDescription: Positive allosteric modulation of human M4 receptor expressed in CHO cells co-expressing Gqi5 assessed as increase in acetylcholine-induced calcium mobilization
Criterion: EC50 strictly less than 300 nM. Met: Met. Not met: Not met.

structureSmiles	classification
Cc1nnc2sc(C(=O)NC3CN(c4ccc(S(=O)(=O)C(F)F)cc4)C3)c(N)c2c1C	Not met
Cc1nnc2sc(C(=O)NC3CN(C(=O)c4ccccn4)C3)c(N)c2c1C	Not met
COc1cc(N2CC(NC(=O)c3sc4nnc(C)c(C)c4c3N)C2)ccn1	Met
Cc1nnc2sc(C(=O)NC3CN(c4ccncn4)C3)c(N)c2c1C	Met
Cc1nnc2sc(C(=O)NC3CN(c4ccccc4)C3)c(N)c2c1C	Met

q: EC50 strictly < 300 nM for this molecule? Cc1nnc2sc(C(=O)NC3CN(c4nc5ccccc5s4)C3)c(N)c2c1C
a: Not met

q: EC50 strictly < 300 nM for this molecule? Cc1nnc2sc(C(=O)NC3CN(c4cccnc4F)C3)c(N)c2c1C
a: Met

====

Let's look at some compounds and their measured K(p,uu,brain).
- testDescription: Ratio of unbound brain to plasma concentration in Sprague-Dawley rat administered as iv cassette dose measured at 0.25 hrs post dose
- Format: ADME, organism-based
// no unit, no text: just the number

Example entries begin here.
structureSmiles	K(p,uu,brain)
Cc1nnc2sc(C(=O)NC3CN(c4nc5cccnc5s4)C3)c(N)c2c1C	1.3
Cc1nnc2sc(C(=O)NC3CN(C(=O)c4ccncc4)C3)c(N)c2c1C	0.37
Cc1nnc2sc(C(=O)NC3CN(c4ccccc4)C3)c(N)c2c1C	0.73

q: Name the recorded K(p,uu,brain) for Cc1nnc2sc(C(=O)NC3CN(c4ccc(C(F)(F)F)nc4)C3)c(N)c2c1C .
a: 0.33

====

- System: MDR1
- testDescription: Efflux ratio of permeability in MDCK2-MDR1 cells
- Format: ADME, cell-based, Canis lupus familiaris
- condition: dog, MDCK-MDR1
experimentalEndpoint: efflux ratio
// no unit, no text: just the number

structureSmiles	experimentalEndpoint	assayResult
Cc1nnc2sc(C(=O)NC3CN(c4ccc(C(F)(F)F)nc4)C3)c(N)c2c1C	efflux ratio	8.5

q: Name the recorded efflux ratio for Cc1nnc2sc(C(=O)NC3CN(C(=O)c4ccncc4)C3)c(N)c2c1C .
a: 96
